Test system: NCI-H196 complex spheroid growth, percent test/control
Assay text: Anticancer human tumor NCI-H196 cell line growth inhibition [AhR]
Recorded conditions: second compound 0.316 µM; first compound 3.16 µM; stronger effect = lower value
viability, T/C values by entry
Kindly provide the numeric value in % only, without the unit symbol.

Consider the reported viability, T/C for these compounds:
Nc1ccccc1NC(=O)c1ccc(CNC(=O)OCc2cccnc2)cc1 + CC(CO)NC(=O)c1cc(-c2ccc(Cl)cc2)nn(-c2cnn(C)c2)c1=O; 12.8
O=C(c1cc(Cc2n[nH]c(=O)c3ccccc23)ccc1F)N1CCN(C(=O)C2CC2)CC1 + Cc1ccccc1N=Nc1ccc(NC(=O)c2ccnn2C)c(C)c1; 108

Query: Entry CC1COCCN1c1cc(C2(S(C)(=N)=O)CC2)nc(-c2ccnc3[nH]ccc23)n1 (stereo not drawn) + Cc1cncc(-c2nc(NCCc3c[nH]c4ccccc34)c3ncn(C(C)C)c3n2)c1 : reported viability, T/C = ?
Response: 85.3

---

Test system: NCI-H196 complex spheroid growth, percent test/control
Assay text: Anticancer human tumor NCI-H196 cell line growth inhibition [AhR]; active = viability on the fitted dose curve at most 10% of control; inactive = the rest
Recorded conditions: second compound 1 µM; first compound 10 µM
From the text: Multicellular complex tumor spheroid response to aryl hydrocarbon receptor antagonists in combination with a variety of drugs and investigational agents in selected tumor cell lines […] Compounds. […] If the clinical Cmax for an agent had not been determined, the highest concentration tested was 10 microM (Table 1). […]
// one of y = active, n = inactive, no free text

COc1cc(Nc2ncc3c(n2)-c2ccc(Cl)cc2C(c2c(F)cccc2OC)=NC3)ccc1C(=O)O + Cc1cncc(-c2nc(NCCc3c[nH]c4ccccc34)c3ncn(C(C)C)c3n2)c1; n
CC1(C)CCC(CN2CCN(c3ccc(C(=O)NS(=O)(=O)c4ccc(NCC5CCOCC5)c([N+](=O)[O-])c4)c(Oc4cnc5[nH]ccc5c4)c3)CC2)=C(c2ccc(Cl)cc2)C1 + Cc1cncc(-c2nc(NCCc3c[nH]c4ccccc34)c3ncn(C(C)C)c3n2)c1; n
CC1COCCN1c1cc(C2(S(C)(=N)=O)CC2)nc(-c2ccnc3[nH]ccc23)n1 (stereo unspecified) + CC(CO)NC(=O)c1cc(-c2ccc(Cl)cc2)nn(-c2cnn(C)c2)c1=O; n
CC1COCCN1c1cc(C2(S(C)(=N)=O)CC2)nc(-c2ccnc3[nH]ccc23)n1 (stereo unspecified) + Cc1cncc(-c2nc(NCCc3c[nH]c4ccccc34)c3ncn(C(C)C)c3n2)c1; n
COc1cccc2c1C(=O)c1c(O)c3c(c(O)c1C2=O)CC(O)(C(=O)CO)CC3OC1CC(N)C(O)C(C)O1 (stereo unspecified) + Cc1ccccc1N=Nc1ccc(NC(=O)c2ccnn2C)c(C)c1; y

Consider the record given below.
Query: Dear all, I need the recorded test outcome for O=C(c1cc(Cc2n[nH]c(=O)c3ccccc23)ccc1F)N1CCN(C(=O)C2CC2)CC1 + Cc1ccccc1N=Nc1ccc(NC(=O)c2ccnn2C)c(C)c1 , thank you.
Response: n

---

Test system: NCI-H196 complex spheroid growth, percent test/control
Assay text: Anticancer human tumor NCI-H196 cell line growth inhibition [AhR];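 also: seven days of drug exposure starting three days after plating; 100% = DMSO vehicle control wells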
Recorded conditions: second compound 0.1 µM; first compound 10 µM; stronger effect = lower value
Property label: viability, T/C (%)
Just the number please, in %, no unit attached.

Query: Returns the measured viability, T/C for the input molecule. Input: COc1ccc([C@@H](O)c2cc(-c3ncnc4cc(N5CCOCC5)ccc34)c(F)cc2Cl)nn1 + Cc1cncc(-c2nc(NCCc3c[nH]c4ccccc34)c3ncn(C(C)C)c3n2)c1
Response: 84.7

Query: Same for COc1cccc2c1C(=O)c1c(O)c3c(c(O)c1C2=O)CC(O)(C(=O)CO)CC3OC1CC(N)C(O)C(C)O1 (stereo not given) + CC(CO)NC(=O)c1cc(-c2ccc(Cl)cc2)nn(-c2cnn(C)c2)c1=O
Response: 0.87

Query: Cool, now CC(C)c1c(-c2ccccc2)nc2c(C#N)c[nH]n2c1=O + Cc1cncc(-c2nc(NCCc3c[nH]c4ccccc34)c3ncn(C(C)C)c3n2)c1
Response: 106

Query: Quick one: COc1cc(C2c3cc4c(cc3C(OC3OC5COC(C)OC5C(O)C3O)C3COC(=O)C23)OCO4)cc(OC)c1O (stereo not given) + Cc1cncc(-c2nc(NCCc3c[nH]c4ccccc34)c3ncn(C(C)C)c3n2)c1
Response: 96.7

Query: What do you have for COc1cc(C2c3cc4c(cc3C(OC3OC5COC(C)OC5C(O)C3O)C3COC(=O)C23)OCO4)cc(OC)c1O (stereo not given) + Cc1ccccc1N=Nc1ccc(NC(=O)c2ccnn2C)c(C)c1 ?
Response: 76.8

---

System: NCI-H196 complex spheroid growth, percent test/control
Assay text: Anticancer human tumor NCI-H196 cell line growth inhibition [AhR];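 also: seven days of drug exposure starting three days after plating; 100% = DMSO vehicle control wells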
Recorded conditions: second compound 0.1 µM; first compound 0.003 µM; stronger effect = lower value
Property label: viability, T/C (%)
Use % as the unit, but write only the number.

The following molecules have reported results that may help.
Nc1ncn(C2CC(O)C(CO)S2)c(=O)n1 (stereo unspecified) + Cc1cncc(-c2nc(NCCc3c[nH]c4ccccc34)c3ncn(C(C)C)c3n2)c1; 112
CCc1c2c(nc3ccc(O)cc13)-c1cc3c(c(=O)n1C2)COC(=O)[C@]3(O)CC + Cc1cncc(-c2nc(NCCc3c[nH]c4ccccc34)c3ncn(C(C)C)c3n2)c1; 102
CCc1c2c(nc3ccc(O)cc13)-c1cc3c(c(=O)n1C2)COC(=O)[C@]3(O)CC + CC(CO)NC(=O)c1cc(-c2ccc(Cl)cc2)nn(-c2cnn(C)c2)c1=O; 104
CCc1c2c(nc3ccc(O)cc13)-c1cc3c(c(=O)n1C2)COC(=O)[C@]3(O)CC + Cc1ccccc1N=Nc1ccc(NC(=O)c2ccnn2C)c(C)c1; 101
CC(C)CC(NC(=O)C(Cc1ccccc1)NC(=O)c1cnccn1)B(O)O (stereo unspecified) + CC(CO)NC(=O)c1cc(-c2ccc(Cl)cc2)nn(-c2cnn(C)c2)c1=O; 106

Next:
Query: What viability, T/C appears in the records for this molecule with NCI-H196 complex spheroid growth, percent test/control? CC(C)CC(NC(=O)C(Cc1ccccc1)NC(=O)c1cnccn1)B(O)O (stereo unspecified) + Cc1ccccc1N=Nc1ccc(NC(=O)c2ccnn2C)c(C)c1
Response: 101

---

Tested on: NCI-H196 complex spheroid growth, percent test/control
Assay text: Anticancer human tumor NCI-H196 cell line growth inhibition [AhR]; active means viability on the fitted dose curve at most 10% of control; inactive means the rest;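 also: seven days of drug exposure starting three days after plating; 100% = DMSO vehicle control wells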
Recorded conditions: second compound 10 µM; first compound 10 µM
Can you answer with just one of these options? active, inactive

COc1cccc2c1C(=O)c1c(O)c3c(c(O)c1C2=O)CC(O)(C(=O)CO)CC3OC1CC(N)C(O)C(C)O1 (stereo not given) + Cc1cncc(-c2nc(NCCc3c[nH]c4ccccc34)c3ncn(C(C)C)c3n2)c1; active
O=C(C=Cc1cccc(S(=O)(=O)Nc2ccccc2)c1)NO + CC(CO)NC(=O)c1cc(-c2ccc(Cl)cc2)nn(-c2cnn(C)c2)c1=O; active

Query: Recorded test call requested for COc1cc(Nc2ncc3c(n2)-c2ccc(Cl)cc2C(c2c(F)cccc2OC)=NC3)ccc1C(=O)O + Cc1cncc(-c2nc(NCCc3c[nH]c4ccccc34)c3ncn(C(C)C)c3n2)c1
Response: inactive

Query: Can you check Nc1ccccc1NC(=O)c1ccc(CNC(=O)OCc2cccnc2)cc1 + CC(CO)NC(=O)c1cc(-c2ccc(Cl)cc2)nn(-c2cnn(C)c2)c1=O next?
Response: active

Query: Same question, CC1(C)CCC(CN2CCN(c3ccc(C(=O)NS(=O)(=O)c4ccc(NCC5CCOCC5)c([N+](=O)[O-])c4)c(Oc4cnc5[nH]ccc5c4)c3)CC2)=C(c2ccc(Cl)cc2)C1 + Cc1ccccc1N=Nc1ccc(NC(=O)c2ccnn2C)c(C)c1 this time
Response: inactive

---

System: NCI-H196 complex spheroid growth, percent test/control
Assay text: Anticancer human tumor NCI-H196 cell line growth inhibition [AhR];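 also: seven days of drug exposure starting three days after plating; 100% = DMSO vehicle control wells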
Recorded conditions: second compound 3.16 µM; first compound 0.1 µM; stronger effect = lower value
Listing: viability, T/C of selected molecules
// return numeric value only (unit: %, not printed)

Answered examples (8):
COc1ccc([C@@H](O)c2cc(-c3ncnc4cc(N5CCOCC5)ccc34)c(F)cc2Cl)nn1 + CC(CO)NC(=O)c1cc(-c2ccc(Cl)cc2)nn(-c2cnn(C)c2)c1=O; 113
COc1ccc([C@@H](O)c2cc(-c3ncnc4cc(N5CCOCC5)ccc34)c(F)cc2Cl)nn1 + Cc1cncc(-c2nc(NCCc3c[nH]c4ccccc34)c3ncn(C(C)C)c3n2)c1; 108
O=C(C=Cc1cccc(S(=O)(=O)Nc2ccccc2)c1)NO + Cc1ccccc1N=Nc1ccc(NC(=O)c2ccnn2C)c(C)c1; 91.9
CC[C@@]1(O)C(=O)OCc2c1cc1n(c2=O)Cc2cc3c(CN(C)C)c(O)ccc3nc2-1 + CC(CO)NC(=O)c1cc(-c2ccc(Cl)cc2)nn(-c2cnn(C)c2)c1=O; 118
Nc1ncn(C2CC(O)C(CO)O2)c(=O)n1 (centres undefined) + Cc1ccccc1N=Nc1ccc(NC(=O)c2ccnn2C)c(C)c1; 86.4
Nc1ccccc1NC(=O)c1ccc(CNC(=O)OCc2cccnc2)cc1 + CC(CO)NC(=O)c1cc(-c2ccc(Cl)cc2)nn(-c2cnn(C)c2)c1=O; 89.4
COc1cc(Nc2ncc3c(n2)-c2ccc(Cl)cc2C(c2c(F)cccc2OC)=NC3)ccc1C(=O)O + CC(CO)NC(=O)c1cc(-c2ccc(Cl)cc2)nn(-c2cnn(C)c2)c1=O; 108
O=C(c1cc(Cc2n[nH]c(=O)c3ccccc23)ccc1F)N1CCN(C(=O)C2CC2)CC1 + Cc1ccccc1N=Nc1ccc(NC(=O)c2ccnn2C)c(C)c1; 105

Query: Look up viability, T/C: Nc1ccn(C2OC(CO)C(O)C2(F)F)c(=O)n1 (centres undefined) + CC(CO)NC(=O)c1cc(-c2ccc(Cl)cc2)nn(-c2cnn(C)c2)c1=O
Response: 96.4

Query: Now consider CC1COCCN1c1cc(C2(S(C)(=N)=O)CC2)nc(-c2ccnc3[nH]ccc23)n1 (centres undefined) + Cc1ccccc1N=Nc1ccc(NC(=O)c2ccnn2C)c(C)c1 .
Response: 99.1

Query: Moving on to the next molecule: Nc1ccccc1NC(=O)c1ccc(CNC(=O)OCc2cccnc2)cc1 + Cc1cncc(-c2nc(NCCc3c[nH]c4ccccc34)c3ncn(C(C)C)c3n2)c1
Response: 85.2

Origin of the recorded values: PubChem BioAssay AID1919016
